Tm reference
# Experiment description: melting temperature; fluorescence melt of hairpins on a sequencing array, two-state fit, raised by 9.35 °C to match UV melts
# Test context: sodium 0.088 M
Just the number please, in °C, no unit attached.

Biosequence	Tm (°C)
GCGCTAGGAAACCAGCGC (((((.(....).)))))	57.3
GTGAAAGGAAACTTTCAC (((((((....)))))))	54.1
GTCAGCCGAAAGGCAGAC (((.(((....))).)))	61.9
GTAAACCGAAAGGTGTAC (((.(((....))).)))	46.2

Assign Tm to the following record: GTACACGGAAACACGTAC ((((..(....)..))))
29.1

Assign Tm to the following record: GACAGCGAAAGCTGAGTC ((((((....)))..)))
39.2

Assign Tm to the following record: GGCTTTCGAAAGAATGCC (((.(((....))).)))
54.8

Assign Tm to the following record: GGTTGAGGAAACTCGACC (((.(((....))).)))
51.5

Assign Tm to the following record: GCCCAGCGAAAGCGGCGC ((.(.((....)).).))
64.5

---

# Experiment description: melting temperature; fluorescence melt of hairpins on a sequencing array, two-state fit, raised by 9.35 °C to match UV melts
# Test context: sodium 0.088 M
Assay metric: Tm (°C)
Just the number please, in °C, no unit attached.

Biosequence	Unit name	Tm
GTGCGCGAAAGCGACCAC ((((((....)))..)))	°C	43.8

Assign Tm to the following record: GAGGGTGGAAACACTCTC (((.(((....))).)))
52.3

Assign Tm to the following record: GATCATCTGCATGATC ((((((....))))))
46.2

Assign Tm to the following record: GGTGCTGGAAACGGTACC (((.(.(....).).)))
41.2

Assign Tm to the following record: GCATAGCGAAAGCGAGGC ((.(.((....)).).))
54.4

Assign Tm to the following record: GATCATTCATATGATC ((((((....))))))
48

---

# Experiment description: melting temperature; fluorescence melt of hairpins on a sequencing array, two-state fit, raised by 9.35 °C to match UV melts
# Test context: sodium 0.088 M
Assay metric: Tm (°C)
Just the number please, in °C, no unit attached.

Biosequence	Unit name	Value
GATCCTTCGGAGGATC ((((((....))))))	°C	52.3

Assign Tm to the following record: GTGCGATCGAAAGATCAC (((..(((....))))))
44.4

Assign Tm to the following record: GCATTACCGAAAGGTTGC (((..(((....))))))
40

Assign Tm to the following record: GGTATAGGAAACCATACC (((((.(....).)))))
36.7

Assign Tm to the following record: GGTACGGGAAACCGTATC (.(((((....))))).)
49.7

Assign Tm to the following record: GATCCATCGATGGATC ((((((....))))))
55.2

Assign Tm to the following record: GGTTTGCCGAAAGGCACC (((..(((....))))))
30.7

Assign Tm to the following record: CGAATCGGAAACGAATCG (((.(((....))).)))
44.7

Assign Tm to the following record: GATCTACCATAGATC ((((((...))))))
37.5

Assign Tm to the following record: CGAAGGCGGAAACGCTCG (((..(((....))))))
37.5

Assign Tm to the following record: GGATAAACGAAAGTTTCC (((..(((....))))))
27.7

Assign Tm to the following record: GTCAGCGAAAGCTATGAC ((((((....)))..)))
44.2

---

folding enthalpy reference
# Experiment description: folding enthalpy; higher = less favourable; fluorescence melt of hairpins on a sequencing array, two-state fit
# Test context: sodium 0.088 M

Sample answers from the record:
Biosequence	folding enthalpy
GCGATGCGAAAGCATAGC ((.((((....)))).))	-31.1 kcal/mol
GCGTCAGAACGC ((((....))))	-23.6 kcal/mol
GTTGGAGGAAACTCTAAC (((.(((....))).)))	-27.1 kcal/mol

Assign folding enthalpy to the following record: GTCCGCGGAAACACGGAC (((((.(....).)))))
-42 kcal/mol

Assign folding enthalpy to the following record: GTGTCGGGAAACTGACGC (.(((.(....).))).)
-24.5 kcal/mol

Assign folding enthalpy to the following record: GGAGCCGGAAACAGCTCC (((((.(....).)))))
-27.7 kcal/mol

Assign folding enthalpy to the following record: GCCTACGAAAGTAGAGGC ((((((....)))..)))
-22.7 kcal/mol

Assign folding enthalpy to the following record: GGTACAACGAAAGTTACC (((..(((....))))))
-17.3 kcal/mol

Assign folding enthalpy to the following record: GTGCCCGAAAGGGGCCAC ((((((....)))..)))
-10.9 kcal/mol

---

# Experiment description: folding enthalpy; higher = less favourable; fluorescence melt of hairpins on a sequencing array, two-state fit
# Test context: sodium 0.088 M
Assign MET to entries whose folding enthalpy meets or exceeds -30 kcal/mol; assign NOT MET to the rest.

Below, 3 sequences whose answers are already recorded.
Biosequence	Label class
GCATCGGGAAACTGATGC (((((.(....).)))))	NOT MET
GCTTAGAAATAAGC (((((....)))))	MET
GGGAGGGAAACCTCCC ((((((....))))))	NOT MET

Reported folding enthalpy at or above -30 kcal/mol? GGGCGTCGAAAGACCCC (((.(((....))))))
NOT MET

Reported folding enthalpy at or above -30 kcal/mol? GTGGGTGGAAACATCCAC ((((.((....)).))))
NOT MET

Reported folding enthalpy at or above -30 kcal/mol? GATCTGGTCACAGATC ((((((....))))))
NOT MET

Reported folding enthalpy at or above -30 kcal/mol? GTTCCTCGAAAGAGTAAC (((.(((....))).)))
MET

Reported folding enthalpy at or above -30 kcal/mol? GATCCGACCTCGGATC ((((((....))))))
NOT MET

Reported folding enthalpy at or above -30 kcal/mol? GCGATAGGAAACTATCAC (.(((((....))))).)
MET

Reported folding enthalpy at or above -30 kcal/mol? GGATTTCCGAAAGGATCC (((..(((....))))))
MET

Reported folding enthalpy at or above -30 kcal/mol? GACTGCGAAAGCACGGTC ((((((....)))..)))
MET

Reported folding enthalpy at or above -30 kcal/mol? GAGATCGGAAACAATCTC (((((.(....).)))))
MET

Reported folding enthalpy at or above -30 kcal/mol? GCAGCGGGAAACCACTGC ((((.((....)).))))
NOT MET

---

Tm reference
# Experiment description: melting temperature; fluorescence melt of hairpins on a sequencing array, two-state fit, raised by 9.35 °C to match UV melts
# Test context: sodium 0.088 M
Just the number please, in °C, no unit attached.

Sample answers from the record:
Biosequence	Assay metric	Value
GATCAGGAGCCTGATC ((((((....))))))	Tm	49.9
GAAGCTGAAAAGCTTC ((((((....))))))	Tm	58.3
GTACCTGGAAACAGGCAC ((.((((....)))).))	Tm	42.5
GGCCAACGAAAGTTAGCC (((.(((....))).)))	Tm	50.1
GCGACTCGAAAGAGACGC (((.(((....))).)))	Tm	62.3
GCCTAGCGAAAGCCGGGC (((..((....))..)))	Tm	57.1
GCGGGCTCGAAAGAGCGC (((..(((....))))))	Tm	55
GCGAAACATCGC ((((....))))	Tm	48.7
GTGGTCGGAAACGGTCAC (((..((....))..)))	Tm	44.2
GCGCAAGGAAACCTGCGC (((((.(....).)))))	Tm	62.4

Assign Tm to the following record: GCGACGACGAAAGTCCGC (((..(((....))))))
51.4

Assign Tm to the following record: GTCACCGAAAGGTGGAC ((((((....))).)))
54.2

---

# Experiment description: folding enthalpy; higher = less favourable; fluorescence melt of hairpins on a sequencing array, two-state fit
# Test context: sodium 0.088 M
Assay metric: folding enthalpy

Sample answers from the record:
Biosequence	folding enthalpy
GCTCTCCGAAAGGACAGC (((.(((....))).)))	-25.9 kcal/mol
GCTCGGCGAAAGCCTCGC ((..(((....)))..))	-14.4 kcal/mol
GTTGATGGAAACGTCAAC (((((.(....).)))))	-42.9 kcal/mol
GATCGCTTCCGCGATC ((((((....))))))	-36 kcal/mol

Assign folding enthalpy to the following record: GACAGACGAAAGTCGTC (((.(((....))))))
-17.8 kcal/mol

Assign folding enthalpy to the following record: GATCTGACAGCAGATC ((((((....))))))
-28.6 kcal/mol
